MEASURED_QUANTITY: melting point

CHEMICAL_SMILES	OBSERVED_MEASUREMENT
Cc1oc(-c2ccccc2)nc1Cc1cccc(CC2COC(C)(C)OC2)c1	85 to 87 °C
Clc1ccc2c(c1)C(c1ccccc1)=NCCN2C1=NCCO1	125 to 126 °C
COc1ccc2c(=O)c(-c3ccccc3)coc2c1	156 to 158 °C
CN(C)c1nc(N)c(-c2nc(N)no2)nc1Cl	210 to 211 °C

###

MEASURED_QUANTITY: melting point

COMPOUND	OBSERVED_MEASUREMENT
CCCC(=O)c1ccc(OC)c(C(=O)O)c1	105 to 106 °C
Oc1ncnc2c1c(Nc1cccnc1)nn2Cc1ccccc1	150 to 160 °C
O=C(/C=C/c1ccn(S(=O)(=O)c2ccc3ccccc3c2)c1)NO	153 °C
COc1ccc(C(=O)O[Si](C)(C)C)cc1	60 to 61 °C
O=C(NC1CCN(CCc2ccc(Cl)cc2)C1)C12CC3CC(CC(C3)C1)C2 (stereo unspecified)	94 to 95 °C
CN(C)C(=O)c1cc(C(C)(C)C)c(O)c(C(C)(C)C)c1	173 to 174 °C

###

Listed here are compounds together with their documented melting point.
MEASURED_QUANTITY: melting point

COMPOUND	OBSERVED_MEASUREMENT
CC(C)c1cc(-c2ccc(F)c3ccc(F)cc23)nc(N)n1	103 to 105 °C
CN(C)Cc1ccc2c(c1)c(C1CCN(CCN3CCNC3=O)CC1)cn2-c1ccc(F)cc1	166 to 174 °C
CCOc1c(OC)cc(C(=O)N2CCN(C(=O)C3=Cc4cc(OC)c(OC)cc4CCC3)CC2)cc1OC	171 to 172 °C
CS(=O)(=O)Nc1ccc(CCOS(C)(=O)=O)cc1	134 to 136 °C
Cc1ccc(F)c(-c2cncc(OC3SCC(O)C(O)C3O)c2)c1 (configuration not stated)	198 °C
C=C(c1ccc(C(=O)N(C)OC)cc1)C(O)(Cn1cncn1)c1ccc(F)cc1F (configuration not stated)	154 to 156 °C
CC(=O)n1nc(C)c(Oc2cc(Cl)cc(C#N)c2)c1C	< 60 °C
CC(C)COc1c(-c2ccc(S(N)(=O)=O)c(F)c2)cnn(CC(F)(F)F)c1=O	163 to 164 °C
CC(C)(C)C1c2ccccc2-c2ccccc2N1S(=O)(=O)c1ccc(O)cc1 (configuration not stated)	187 to 189 °C
Cc1ccc(-c2cncc(OC3SCC(O)C(O)C3O)c2)cc1C (configuration not stated)	184 °C
N#CSc1cc(Cl)c(Cl)c2sc(NC(=O)Nc3ccc(Cl)cc3)nc12	238 to 239 °C
Cc1ccc(NC(=O)c2ccc(CN3CCN(C)CC3)c(C(F)(F)F)c2)cc1NC(=O)N(C)c1cc(N)ncn1	192 to 193 °C

###

CHEMICAL_SMILES	melting point
CN(C)C(=C[N+](=O)[O-])NCc1ccc(Cl)nc1	124 to 125 °C
CCc1cc2c(=O)c3cccc(C(=O)OC)c3n(Cc3ccc(-c4ccccc4-c4nnn[nH]4)cc3)c2s1	228 to 231 °C
COc1cc(Br)c(OC)c(C=O)c1	62 to 64 °C
Cc1nn(C)c(C)c1C(=O)NC1CCCCC1	185 to 186 °C
CC(C)(C)OC(=O)C[C@H](NC(=O)CCCC(=O)Nc1ccc(C#N)cc1)C(=O)N[C@@H](Cc1ccccc1)C(=O)OC(C)(C)C	64 to 66 °C
COc1ccc(S(=O)(=O)Nc2cccnc2Nc2cccc(OC)c2)cc1	161 to 162 °C

###

CHEMICAL_SMILES	UNIT_OF_MEASURE	melting point
COC(=O)[C@H](Cc1c[nH]c2ccccc12)N(CCN(CC(=O)OC(C)(C)C)CC(=O)OC(C)(C)C)CCN(CC(=O)OC(C)(C)C)CC(=O)OC(C)(C)C	°C	71
COC[C@@H]1CN(c2ccc(OCc3ccccc3)cc2)C(=O)O1	°C	101

###

Documented melting point across a set of compounds

COMPOUND	melting point
CC1(C)SC2C(NC(=O)CNC(=O)c3ccccc3)C(=O)N2C1c1nnn[nH]1 (stereo not drawn)	85 to 93 °C
COC(=O)c1sc(C)cc1N1N=C2c3cc(C)sc3SCC2CC1=O (stereo not drawn)	164 to 166 °C
O=C(NCc1ccc(OCCN2CCCC2)cc1)c1ccc2c(c1)OCO2	93.5 to 94.5 °C
CCCc1c(OCCCCc2cccc(O)c2O)ccc(C(C)=O)c1O	103 to 105 °C
COC(=O)[C@@H]1Cc2ccccc2N1C(=O)[C@H](CC(=O)O)NC(=O)C(F)(F)F	157 to 158 °C
CN(C)C1(c2ccccc2)CCC(=O)CC1	104 to 108 °C
N#Cc1nn(-c2c(Cl)cc(-c3c(F)c(F)nc(F)c3F)cc2Cl)c(N)c1SC(F)(F)F	100 to 104 °C
O=c1oc2c(c(O)c1Sc1nc3ccccc3o1)c(=O)n(Cc1ccccc1)c1ccccc21	196 to 198 °C
CCCCOc1c2ccccc2c(C=O)c2ccccc12	65 to 67 °C
COc1cc(OC)cc(Oc2nc(N)n3nc(-c4ccco4)nc3n2)c1	248 to 250 °C
CC(C)c1cccc(C(C)C)c1NC(=O)N(Cc1ccc(N(C)C)cc1)c1ccc(Br)cc1	165 to 166 °C
O=C(O)COC1CCN(Cc2ccc3c(c2)Nc2nccnc2S3)CC1	204 to 207 °C
COc1cccc(OC)c1C1(O)C(=O)Nc2ccc(Cl)cc21 (stereo not drawn)	182 °C
CO[C@H]1CC[C@H](N(C)C(=S)c2ccc3nonc3c2)CC1	137 to 138 °C
O=[N+]([O-])C=Cc1cc(OCc2ccccc2)c(OCc2ccccc2)cc1[N+](=O)[O-]	162 to 164 °C
CNc1ncc(-c2cc(Cl)cc(Cl)c2Cl)c(N)n1	155 to 157 °C
CCc1ccc(NC(=O)c2ccccc2CN2C(=O)C3(COc4cc5c(cc43)CCO5)c3ccccc32)cc1 (stereo not drawn)	> 230 °C
CS(=O)(=O)NCCCC1COCc2nc3c(N)nc4ccccc4c3n21 (stereo not drawn)	249 to 250 °C
Cc1ccc(CCC(=O)c2c(O)c3cccnc3n(-c3ccccc3)c2=O)cc1	232 to 234 °C
Nc1nc(NCCC2CCCCC2)nc2c1ncn2C1OC(CO)C(O)C1O (stereo not drawn)	142 to 145 °C
Cc1ccc2[nH]c(=O)cc(CCN3CCN(c4cccc5ccccc45)CC3)c2c1	241 to 242 °C
CC[C@H](C)[C@H](NC(=O)O[C@@H](CC(C)C)C(=O)OCc1ccccc1)C(N)=O	140 to 141 °C
C=CCN(C)c1nc(-c2ccc(OC)cc2)nc2sc(C#N)c(C)c12	126 to 128 °C
CN1CCN(CCC2C(=O)NC(c3ccc(Cl)cc3)c3ccccc32)CC1 (stereo not drawn)	201 to 205 °C
CS(=O)(=O)c1ccc(-c2cnn(-c3ccc(F)cc3)c(=O)c2OCC2CC2)cc1	166 to 167 °C
CC(C)c1cc(-c2ccc(F)c3ccccc23)nc(NS(C)(=O)=O)n1	276 to 277 °C
CC1(C)CCC(C)(C)c2c(O)cc(-c3ccccc3)cc21	121 °C
CCOC(=O)N1CCN(c2ccc(C3=NNC(=O)CC3C)cc2N)CC1 (stereo not drawn)	193 to 195 °C
Cc1c(C)c(C)c(S(=O)(=O)NCCc2ccc(C(=CCCCC(=O)O)c3cccnc3)cc2)c(C)c1C	158 to 160 °C
Cc1cc(Nc2nccc(-c3sc(CO)nc3C)n2)ccc1N1CCCCC1	142 to 144 °C
OC(Cn1cncn1)(c1ccc(Cl)cc1)C1(n2cncn2)CC1 (stereo not drawn)	208 °C
Cc1c([N+](=O)[O-])ccc(OCc2ccccc2)c1Cl	73 to 74.5 °C
O=C(O)CC/C=C/c1nn(-c2ccccc2)c2c1CCC2	122 to 125 °C

###

Each entry below carries its reported melting point.

COMPOUND	melting point
c1cc(-n2cnnn2)ccc1SCN1CCOCC1	118 to 121 °C
CCOC(=O)c1ccc(C=C(C)c2ccc3c(c2)SCCC3(C)C)cc1	64 to 65 °C
c1cn(CCC23CC4CC(CC(C4)C2)C3)cn1	64 to 65 °C
CCCn1c(=O)c2c(nc(/C=C/c3cc(OC(C)=O)cc(OC(C)=O)c3)n2C)n(CCC)c1=O	224 to 225 °C
CC(C)c1cc(CCCOc2nn(C)cc2CC(=O)O)n(Cc2ccc(Cl)cc2Cl)n1	67 to 68 °C
O=C1c2ccc(Cl)cc2C(=O)N1CC(=O)N1c2ccccc2N(Cc2ccccc2)C(=O)[C@H]2CCC[C@H]21 (relative stereo)	237 to 238 °C
CCc1noc(C2=C(C)NC(C)=C(C(=O)OCCOC)C2c2cc(Cl)cc(Cl)c2)n1 (stereo not drawn)	201 to 202 °C
CCOC(=O)C1=C(C)NC(C)=C(C(=O)OCC)C1c1ccccc1/C=C/c1ccccc1	187 to 188 °C
CCOC(=O)c1cnc2c(OC)nccc2c1Nc1ccccc1C	158 °C
CCc1cc(N)c(C(=O)OC)c(CC)n1	75 °C
CCCCC(C(=O)N[C@H]1CN2CCC1CC2)c1ccccc1 (stereo partly drawn)	136 °C
Cc1c(C(N)=O)c2ccccc2n2c(N(C)C)nc(-c3noc(C4CC4)n3)c12	190 to 192 °C
CCOC(=O)CCCCC(c1ccc(C)s1)N(O)C(N)=O (stereo not drawn)	106 to 107 °C
